- Test system: A498
- TEST_DESCRIPTION: NCI tumour cell line growth inhibition, 48 h
Calls of active or inactive are those of the source. No stated cut-off is given here; in the data, active = GI50 up to about 1.1 µM and inactive = higher.
Reply using exactly one outcome from active, inactive

The following molecules have reported results that may help.
{"columns": ["MOLECULE", "ASSIGNED_LABEL"],
 "data": [
  ["NC1=NC2(COC(c3ccccc3)(c3ccccc3)c3ccccc3)OC(COC(c3ccccc3)(c3ccccc3)c3ccccc3)C(O)C2O1 (centres undefined)", "inactive"],
  ["OC[C@H](O)[C@@H](OCc1ccccc1)[C@H](NCc1ccccc1)c1cccs1", "inactive"],
  ["COc1cccc(C2SCC(=O)N2c2ccc(-c3ccc(-n4c(-c5ccccc5)nc5ccccc5c4=O)cc3)cc2)c1OC (centres undefined)", "inactive"],
  ["CSCCCNC(=O)c1csc(-c2csc(CCNC(=O)CNC(=O)CNC(=O)OC(C)(C)C)n2)n1", "inactive"],
  ["Nc1ccc2c3[nH]c4cc(N)ccc4cc-3nc2c1", "active"]
]}

Please state the recorded outcome for this molecule: NC(=O)C1CCCN1C(=O)N(CCCl)N=O (centres undefined) inactive

Please state the recorded outcome for this molecule: COc1ccc(-c2nc(N)c(C#N)c3c2CCS(=O)(=O)c2ccc(C)cc2-3)cc1OC inactive

Please state the recorded outcome for this molecule: S=C(Nc1ccccn1)Nc1ccccc1Cl inactive

Please state the recorded outcome for this molecule: CN1C(=O)c2c(c3c4ccccc4n(C4OC(CO)C(O)C(O)C4O)c3c3[nH]c4ccccc4c23)C1=O (centres undefined) inactive

Please state the recorded outcome for this molecule: O=C(NC1C2CC3CC(C2)CC1C3)/C(Cl)=C1/Sc2ccccc2NC1=O (centres undefined) inactive

Please state the recorded outcome for this molecule: NNS(=O)(=O)c1ccc(/C=C2\NC(=O)NC2=O)cc1 inactive

* * *

- Test system: A549
- TEST_DESCRIPTION: NCI tumour cell line growth inhibition, 48 h
Activity calls are given as the source filed them. Cut-off read from the data, not from the text of the source: active = GI50 up to about 1.1 µM and inactive = higher.
Provide the recorded GI50 for the entries that follow.

{"columns": ["COMPOUND", "GI50"],
 "data": [
  ["O=C1NC(c2ccccc2Cl)Nc2ccccc21 (stereo unspecified)", "32.5 µM (inactive)"],
  ["CC(C)CCCC(C)[C@H]1CC[C@H]2n3c(nc4ccccc43)CCC[C@]12C (stereo partly specified)", "20.1 µM (inactive)"],
  ["CCCCCCCCCCNC(=O)CCC(NC(=O)c1ccc(N(C)Cc2cnc3nc(N)nc(N)c3n2)cc1)C(=O)NCCCCCCCCCC (stereo unspecified)", "28.6 µM (inactive)"],
  ["CCO/C([O-])=C(\\C(=O)c1ccc([N+](=O)[O-])cc1)[n+]1c(C)n(C)c2ccccc21", "> 100 µM (inactive)"],
  ["CC(=O)NC1C(OCC(=O)NC(C)C(=O)NC(CCC(=O)NCCCCCNc2ccc([N+](=O)[O-])c3[nH]c4ccccc4c(=O)c23)C(N)=O)C(O)C(CO)OC1(C)OCc1ccccc1 (stereo unspecified)", "> 50 µM (inactive)"],
  ["CN(C)c1n/c(=N/Cc2ccco2)ss1", "15.6 µM (inactive)"]
]}

Please report GI50 for every entry that follows.
1. Cc1ccc2oc3c(c(Br)c(Br)n3C)c(=O)c2c1
2. COc1cc2ccc(C(C)NCC#N)cc2cc1OC (stereo unspecified)
3. CCOC(=O)c1cnc2[nH]ccn2c1=O
4. CN(C)CCCN1c2ccccc2CCc2cc([N+](=O)[O-])ccc21

["20.5 µM (inactive)", "> 100 µM (inactive)", "> 10 µM (inactive)", "24.6 µM (inactive)"]

Which GI50 is listed for OC1OCC(COc2cc(Cl)c(Cl)cc2Cl)OC1O (stereo unspecified) ? 55 µM (inactive)
